Target: LRRK2 (Homo sapiens (Human), UniProt Q5S007, G2019S)
Sequence (Q5S007 970-2527 G2019S limits assumed): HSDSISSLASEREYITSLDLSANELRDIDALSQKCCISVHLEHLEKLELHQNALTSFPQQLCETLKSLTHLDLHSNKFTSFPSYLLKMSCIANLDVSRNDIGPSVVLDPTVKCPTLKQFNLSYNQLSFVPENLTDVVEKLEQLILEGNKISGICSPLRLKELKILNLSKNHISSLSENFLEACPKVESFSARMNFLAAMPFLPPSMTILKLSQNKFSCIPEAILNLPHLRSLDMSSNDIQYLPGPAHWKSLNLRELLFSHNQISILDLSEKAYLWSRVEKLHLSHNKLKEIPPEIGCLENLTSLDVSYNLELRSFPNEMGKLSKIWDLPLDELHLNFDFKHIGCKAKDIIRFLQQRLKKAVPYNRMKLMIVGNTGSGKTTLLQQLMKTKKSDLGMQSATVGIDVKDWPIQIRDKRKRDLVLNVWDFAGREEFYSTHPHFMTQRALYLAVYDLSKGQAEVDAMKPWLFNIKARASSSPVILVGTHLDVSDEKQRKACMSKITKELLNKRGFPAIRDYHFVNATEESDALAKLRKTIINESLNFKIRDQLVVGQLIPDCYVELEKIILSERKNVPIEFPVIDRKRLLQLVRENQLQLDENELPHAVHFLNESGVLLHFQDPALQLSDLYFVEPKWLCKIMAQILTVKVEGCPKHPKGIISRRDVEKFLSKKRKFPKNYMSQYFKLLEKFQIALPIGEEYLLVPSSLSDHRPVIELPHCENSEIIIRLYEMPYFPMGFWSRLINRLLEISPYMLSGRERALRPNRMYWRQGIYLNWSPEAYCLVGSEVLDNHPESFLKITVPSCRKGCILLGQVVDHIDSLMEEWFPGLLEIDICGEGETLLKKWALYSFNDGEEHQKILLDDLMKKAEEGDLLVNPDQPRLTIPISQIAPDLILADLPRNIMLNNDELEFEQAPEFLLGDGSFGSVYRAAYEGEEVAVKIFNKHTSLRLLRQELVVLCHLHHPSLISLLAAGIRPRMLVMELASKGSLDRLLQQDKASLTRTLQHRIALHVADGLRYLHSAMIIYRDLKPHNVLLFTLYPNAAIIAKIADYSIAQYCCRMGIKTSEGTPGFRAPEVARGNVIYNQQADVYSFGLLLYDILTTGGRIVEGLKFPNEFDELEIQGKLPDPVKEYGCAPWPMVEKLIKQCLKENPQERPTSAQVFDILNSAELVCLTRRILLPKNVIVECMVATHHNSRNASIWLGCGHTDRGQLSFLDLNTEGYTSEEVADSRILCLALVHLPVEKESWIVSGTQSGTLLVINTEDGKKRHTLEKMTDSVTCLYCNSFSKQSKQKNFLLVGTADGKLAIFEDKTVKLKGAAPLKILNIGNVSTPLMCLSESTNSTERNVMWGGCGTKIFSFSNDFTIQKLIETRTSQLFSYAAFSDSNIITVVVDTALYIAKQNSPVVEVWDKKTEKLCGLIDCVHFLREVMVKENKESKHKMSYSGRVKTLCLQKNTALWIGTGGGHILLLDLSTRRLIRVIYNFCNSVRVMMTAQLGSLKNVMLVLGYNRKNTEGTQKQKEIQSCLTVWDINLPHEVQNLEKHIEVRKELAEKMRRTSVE
Assay: In Vitro LRRK2 LabChip Assay
Type: biochemical
Details: Table 6
PROPERTY_LABEL: pKi
# pKi is unitless: minus log10 of the molar concentration; print number only

CNc1nc(Nc2cc(OC)c(C(=O)N3CCOCC3)cc2Cl)ncc1Br [Example 288]    8.59
CCNc1nc(Nc2ccc(C(=O)N(C)CCOC)cc2OC)ncc1C(F)(F)F [Example 302]    8.64
CCN(CCOC)C(=O)c1cc(OC)c(Nc2ncc(C(F)(F)F)c(NC)n2)cc1F [Example 308]    8.46
CNc1nc(Nc2ccc(C(=O)N3CCC(N(C)C)CC3)cc2OC)ncc1C(F)(F)F [Example 276]    9.10
CNc1nc(Nc2ccc(C(=O)N3CCCC3)cc2OC)ncc1C(F)(F)F [Example 274]    8.39
COc1cc(C(=O)N2CCCC2)ccc1Nc1ncc(Cl)c(OC)n1 [Example 299]    8.22
CCNc1nc(Nc2cc(F)c(C(=O)N(CC)CCOC)cc2OC)ncc1C(F)(F)F [Example 307]    8.85

Requested field: pKi. Item: CNc1nc(Nc2ccc(C(=O)N3CCN(CC(F)(F)F)CC3)cc2OC)ncc1C(F)(F)F [Example 279]
8.70
